Examples of compounds with documented inhibition at 1 µM follow.
molecular target: ERK5 (Homo sapiens, UniProt Q13164); construct: screened for activity against several kinases in Jurkat cells; endogenous in cells; host or cells: Jurkat cell lysate; assay: Probe-based (AX9989 acyl phosphate ATP probe) kinase profiling in Jurkat lysate: ERK5; type: binding; conditions: screening concentration 1.0 μM; read-out: Kinase inhibition % at indicated screening concentration: ERK5
Sequence (Q13164 whole entry): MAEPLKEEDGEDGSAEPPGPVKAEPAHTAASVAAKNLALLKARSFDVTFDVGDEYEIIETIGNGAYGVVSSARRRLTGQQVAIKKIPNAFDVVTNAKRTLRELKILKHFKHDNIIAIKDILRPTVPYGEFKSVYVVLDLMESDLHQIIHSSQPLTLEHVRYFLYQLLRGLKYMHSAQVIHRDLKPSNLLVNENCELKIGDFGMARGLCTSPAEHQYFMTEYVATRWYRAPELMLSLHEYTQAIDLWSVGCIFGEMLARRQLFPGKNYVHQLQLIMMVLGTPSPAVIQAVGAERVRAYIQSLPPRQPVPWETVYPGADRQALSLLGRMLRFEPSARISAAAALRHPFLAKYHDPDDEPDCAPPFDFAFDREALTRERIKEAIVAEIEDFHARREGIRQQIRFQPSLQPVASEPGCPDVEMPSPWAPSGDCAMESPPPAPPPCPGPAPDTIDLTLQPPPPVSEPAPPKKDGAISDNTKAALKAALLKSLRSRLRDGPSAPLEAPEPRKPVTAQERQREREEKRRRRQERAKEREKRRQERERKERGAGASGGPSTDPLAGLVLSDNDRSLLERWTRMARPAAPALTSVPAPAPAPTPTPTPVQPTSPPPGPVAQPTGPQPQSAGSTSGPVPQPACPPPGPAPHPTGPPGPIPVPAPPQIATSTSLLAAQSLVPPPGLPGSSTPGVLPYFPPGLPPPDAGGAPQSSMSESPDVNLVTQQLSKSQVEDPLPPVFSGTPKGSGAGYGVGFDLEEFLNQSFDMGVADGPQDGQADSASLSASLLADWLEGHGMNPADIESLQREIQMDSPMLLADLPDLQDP

{"structureSmiles": "COc1c(Nc2cc3c(cn2)N(C)C(=O)c2ccccc2N3C)cccc1C(=O)N1CCNCC1", "inhibition at 1 µM": "50 to 75%"}
{"structureSmiles": "CN1C(=O)c2ccccc2N(C)c2cc(N[C@H]3CC[C@H](NC(=O)N4CCCC4)CC3)ncc21", "inhibition at 1 µM": "75 to 90%"}
{"structureSmiles": "Cc1ccc(Nc2cc3c(cn2)N(C)C(=O)c2ccccc2N3C)c(C)c1", "inhibition at 1 µM": "35 to 50%"}
{"structureSmiles": "Cc1c(Nc2cc3c(cn2)N(C)C(=O)c2ccccc2N3C)cnn1C", "inhibition at 1 µM": "75 to 90%"}

Item CCOc1cc(C(=O)N2CCC(N3CCCC3)CC2)ccc1Nc1cc2c(cn1)N(C)C(=O)c1ccccc1N2C was tested on ERK5 (Homo sapiens, UniProt Q13164); the reported inhibition at 1 µM is > 90%

Item CCOc1cc(C(=O)NCCOC)ccc1Nc1cc2c(cn1)N(C)C(=O)c1ccccc1N2C was tested on ERK5 (Homo sapiens, UniProt Q13164); the reported inhibition at 1 µM is 75 to 90%

Item CCOc1cc(C(=O)NCCN2CCOCC2)ccc1Nc1cc2c(cn1)N(C)C(=O)c1ccccc1N2C was tested on ERK5 (Homo sapiens, UniProt Q13164); the reported inhibition at 1 µM is 50 to 75%

Item CN1C(=O)c2ccccc2N(C)c2cc(Nc3ccccc3Cl)ncc21 was tested on ERK5 (Homo sapiens, UniProt Q13164); the reported inhibition at 1 µM is 50 to 75%

Item CN1C(=O)c2ccccc2N(C)c2cc(NC3CCOCC3)ncc21 was tested on ERK5 (Homo sapiens, UniProt Q13164); the reported inhibition at 1 µM is 75 to 90%
